- measurement_description: label from the status in PepcDB records
measured_metric: protein production

MTENGRYEYIVIGSEAAGVGLVRELTAAGKKVLAVDKSKEKIELLEDEGFDAVIADPTDESFYRSLDLEGVSAVLITGSDDEFNLKILKALRSVSDVYAIVRVSSPKKKEEFEEAGANLVVLVADAVKQAFMDKIKKMETL not failed
MTAQKMSAQEIIAFIGNAEKKTNVKVTFEGALAAALPENVVKLGNVLFGDWKDIEPLLANLTENKDYVVEQDGRNSAVPLLDK not failed
MGILDKVKNLLSQNADKVETVINKAGEFVDEQTQGNYSDAIHKLHDAASNVVGMSDQQS not failed
MPKERVDVLAYKQGLFNTREQAKRGVMAGLVVNVINGERYDKPGEKIDEATELKLKGDKLKYVSRGGLKLEKALKVFVISVDGQITLDIGASTGGFTDVMLQNGAQLVYAVDVGTNQLVWKLRQDERVCSMEQYNFRYAEPSDFERGQPTFASIDVSFISLNLILPALSKILTDGGQVVALIKPQFEAGREQIGKHGIVKDKSVHETVLETVTTFATNYGFTVKELDFSPIQGGHGNIEFLAYLEKSAQAQNQVLTKIKSIVEQAHKEFKKNEET not failed
MLGYAAMNRTLRERDPPRRCNRDMQKKTWESEGIEYAATLAAQNFEDLREILLWNRDHGIDFYRCSSKLVPWNSQFDITALPNYERVQSLAAECGALVQDNDMRLTFHPSHWCKLASESDDTVARSVESVEHHGRWLDLMGVPRSPRYAINVHIGAHYGDKAATADRFCDVVSDLAPRARDRLTVENDDTESLWSVQELVTDVASQVDIPVTFDYHHHSFTDRGLTYREGFELARETWDGARPITHYSEPARLRPDSDASPQAHADHVAAVPTWL failed
MRTTAAEEAGLETETARRRFSRASLVNVAGNAVKILVEGAVGLAFGSVALLADAAHSVADLVASAVVLVWGRSVYTDPDENHPHGHQRVEPLAALFVGSLIVLLGLNLFYESATGLVAGPEVQFHPLLVGALLFAMADMYLLYWYTTHINESVGSSALEALAIDCRNDIYTTIAALCGVIGVFFGYPLFDAVAGGLVSVLVVYQGFEISRENVSYLVGASPSDQQRQRVVETLTDHPAVHGAHDVAVFYDGTDIEVEAHVEVDGELTLVEAHDIETELVSALRSLESVGDVHLHLDPAGIGEWKDAAVNEQRGPETQTGSPKQ failed

We next turn to a different sequence, shown below.
Query: Bench note: what protein production did MTLFAEYNSPYLFAIAFVFFIGVLEMISLIFGHFLSGALDAHLDHYDALSSGPAGQALHYLNIGRVPALVVLCLLAGYFGLFGILIQHGGIMLWQAPLSNLLLVPLSIVLSVFAVHYSGKILAPWLPRDESSALREEEFIGGMAIITGHAAVAGTPCEGKFTDKFGQIHYLLLEPEKGKEFKKGDKVLIICRLSATRYLAERTFYV show?
Response: failed
